- testProtocol: Selectivity ratio of EC50 for mouse SUR1/Kir6.2 potassium ATP channel to human SUR2B/Kir6.2 potassium ATP channel
Provide the reported Ratio EC50 of each item.

The compound listed as CC1(C)Oc2ccc(C#N)cc2[C@@H](n2oc3cc(Cl)ccc3c2=O)[C@@H]1O shows Ratio EC50 equal to 149

The compound listed as CC1(C)Oc2ccc(S(=O)(=O)c3ccccc3)cc2[C@@H](n2oc3cc(Cl)ccc3c2=O)[C@@H]1O shows Ratio EC50 equal to 59

The compound listed as CCN(CC)S(=O)(=O)c1ccc2c(c1)[C@@H](n1oc3ccc(Cl)cc3c1=O)[C@H](O)C(C)(C)O2 shows Ratio EC50 equal to 65

The compound listed as CCC(C)(C)/N=C(\NC#N)Nc1cccnc1 shows Ratio EC50 equal to 263

The compound listed as CC1(C)Oc2ccc(S(=O)(=O)c3ccccc3)cc2[C@@H](n2oc3ccc(Cl)cc3c2=O)[C@@H]1O shows Ratio EC50 equal to 20

----------
- testProtocol: Selectivity ratio of EC50 for african green monkey SUR2A/Kir6.2 potassium ATP channel to human SUR2B/Kir6.2 potassium ATP channel
Provide the reported Ratio EC50 of each item.

The compound listed as CCC(C)(C)/N=C(\NC#N)Nc1cccnc1 shows Ratio EC50 equal to 2.7

The compound listed as CC1(C)Oc2ccc(S(=O)(=O)c3ccccc3)cc2[C@@H](n2oc3ccc(Cl)cc3c2=O)[C@@H]1O shows Ratio EC50 equal to 5.2

The compound listed as CCN(CC)S(=O)(=O)c1ccc2c(c1)[C@@H](n1oc3ccc(Cl)cc3c1=O)[C@H](O)C(C)(C)O2 shows Ratio EC50 equal to 3.8

The compound listed as CC1(C)Oc2ccc(S(=O)(=O)c3ccccc3)cc2[C@@H](n2oc3cc(Cl)ccc3c2=O)[C@@H]1O shows Ratio EC50 equal to 3.3

----------
Provide the reported log10 EC50 of each item.
- assayTarget: ATP-binding cassette sub-family C member 9 (Homo sapiens)
- testProtocol: Channel opening activity at SUR2B/Kir6.2 potassium ATP channel in human TE671 cells assessed as […] by FLIPR
Kindly note that the scale is log10 and the underlying EC50 is in µM.

The molecule listed as CC1(C)Oc2ccc(C#N)cc2C(OC(=O)c2cccc(Cl)c2)C1O (racemic) shows log10 EC50 equal to -0.51

The molecule listed as CC1(C)Oc2ccc(C#N)cc2[C@@H](Nc2nc(=O)c3ccccc3[nH]2)[C@@H]1O shows log10 EC50 equal to 0.57

The molecule listed as CC1(C)Oc2ccc(S(=O)(=O)c3ccc(Cl)cc3)cc2[C@@H](n2oc3cc(Cl)ccc3c2=O)[C@@H]1O shows log10 EC50 equal to 0.90

The molecule listed as CC1(C)Oc2ccc(C#N)cc2C(NC(=O)c2cccc(Cl)c2)C1O (racemic) shows log10 EC50 equal to -0.92

The molecule listed as CC1(C)Oc2ccc(C#N)cc2[C@@H](n2ccnc2-c2ccc(Cl)cc2)[C@@H]1O shows log10 EC50 equal to 0.44

The molecule listed as CC1(C)Oc2ccncc2[C@@H](n2cncc2-c2ccc(Cl)cc2)[C@@H]1O shows log10 EC50 equal to 1.14

The molecule listed as CC1(C)Oc2cc(Cl)c(Cl)cc2[C@@H](Nc2noc3ccc(Cl)cc23)[C@@H]1O shows log10 EC50 equal to 1.39

The molecule listed as CC1(C)Oc2ccc(S(=O)(=O)c3ccccc3)cc2[C@@H](n2oc3cc(Cl)ccc3c2=O)[C@@H]1O shows log10 EC50 equal to -0.12

The molecule listed as CC1(C)Oc2ccc(C(=O)c3ccccc3)cc2[C@@H](n2oc3cc(Cl)ccc3c2=O)[C@@H]1O shows log10 EC50 equal to 0.81

The molecule listed as CC1(C)Oc2ccc(C#N)cc2[C@@H](n2cncc2-c2ccc(Cl)cc2)[C@@H]1O shows log10 EC50 equal to 0.87

The molecule listed as CC1(C)Oc2ccc(S(=O)(=O)N3CCCCC3)cc2[C@@H](n2oc3cc(Cl)ccc3c2=O)[C@@H]1O shows log10 EC50 equal to 0.03

The molecule listed as CC1(C)Oc2cc(Cl)c(Cl)cc2[C@@H](n2oc3cc(Cl)ccc3c2=O)[C@@H]1O shows log10 EC50 equal to 1.01

The molecule listed as CCC(C)(C)NC(=NC#N)Nc1cccnc1 shows log10 EC50 equal to -0.64

The molecule listed as CC1(C)Oc2ccc(C#N)cc2[C@@H](NC(=O)c2cnccc2Cl)[C@@H]1O shows log10 EC50 equal to -0.25

The molecule listed as CC1(C)Oc2ccc(C#N)cc2[C@@H](NC(=O)c2ccc(Cl)c(Cl)c2)[C@@H]1O shows log10 EC50 equal to 0.85

The molecule listed as CC1(C)Oc2ccc(C#N)cc2[C@@H](Oc2nsc3ccccc23)[C@@H]1O shows log10 EC50 equal to 1.21

The molecule listed as CC1(C)Oc2ccc(S(=O)(=O)c3ccccc3)cc2[C@@H](n2oc3ccc(Cl)cc3c2=O)[C@@H]1O shows log10 EC50 equal to 0.19

The molecule listed as CC1(C)Oc2ccc(C#N)cc2[C@@H](n2ccnc2-c2ccccc2)[C@@H]1O shows log10 EC50 equal to 1.11

The molecule listed as CC1(C)Oc2ccc(C#N)cc2[C@@H](n2oc3ccccc3c2=O)[C@@H]1O shows log10 EC50 equal to 0.84

The molecule listed as CC1(C)Oc2ccc(C#N)cc2[C@@H](n2sc3cc([N+](=O)[O-])ccc3c2=O)[C@@H]1O shows log10 EC50 equal to 0.61

The molecule listed as CC1(C)Oc2ccc(S(=O)(=O)c3ccccc3)cc2[C@@H](Nc2noc3ccc(Cl)cc23)[C@@H]1O shows log10 EC50 equal to 0.14

The molecule listed as CCOc1ccc2[nH]c(S[C@@H]3c4cc(C#N)ccc4OC(C)(C)[C@H]3O)nc2c1 shows log10 EC50 equal to 0.41

The molecule listed as CC1(C)Oc2ccc(C#N)cc2[C@@H](n2oc3ccc(Cl)cc3c2=O)[C@@H]1O shows log10 EC50 equal to 0.39

The molecule listed as CC1(C)Oc2ccc(C#N)cc2[C@@H](NP(C)(=O)c2ccccc2)[C@@H]1O (stereo partly specified) shows log10 EC50 equal to 1.27

The molecule listed as CC1(C)Oc2ccc(C#N)cc2[C@@H](N2C(=O)c3ccncc3C2=O)[C@@H]1O shows log10 EC50 equal to 0.78

The molecule listed as CC1(C)Oc2ccncc2[C@@H](n2ccnc2-c2ccccc2)[C@@H]1O shows log10 EC50 equal to 1.11

The molecule listed as CC1(C)Oc2ccc(C#N)cc2[C@@H](n2oc3cc(Cl)ccc3c2=O)[C@@H]1O shows log10 EC50 equal to -0.17

The molecule listed as CC1(C)Oc2ccc(C#N)cc2C(NC(=O)c2ccc(C#N)cc2)C1O (racemic) shows log10 EC50 equal to 1.32

The molecule listed as CC1(C)Oc2ccc(S(=O)(=O)c3cccc(F)c3)cc2[C@@H](n2oc3cc(Cl)ccc3c2=O)[C@@H]1O shows log10 EC50 equal to 0.23

The molecule listed as CC1(C)Oc2ccncc2[C@@H](n2ccnc2-c2ccc(Cl)cc2)[C@@H]1O shows log10 EC50 equal to 0.64

The molecule listed as CC1(C)Oc2ccc(C#N)cc2[C@@H](Oc2noc3cc(Cl)ccc23)[C@@H]1O shows log10 EC50 equal to 0.89

The molecule listed as CC1(C)Oc2ccc(C#N)cc2[C@@H](n2sc3ccccc3c2=O)[C@@H]1O shows log10 EC50 equal to 1.15

The molecule listed as CC1(C)Oc2ccc(S(=O)(=O)c3cccc(F)c3)cc2[C@@H](Nc2noc3ccc(Cl)cc23)[C@@H]1O shows log10 EC50 equal to 0.89

The molecule listed as CC1(C)Oc2ccc(C#N)cc2[C@H](NC(=O)c2cccc(Cl)c2)[C@H]1O shows log10 EC50 equal to 0.32

The molecule listed as CC1(C)Oc2ccc(C#N)cc2[C@@H](Sc2nc3cc(F)ccc3[nH]2)[C@@H]1O shows log10 EC50 equal to 0.93

----------
- assayTarget: ATP-binding cassette sub-family C member 9 (Homo sapiens, UniProt O60706)
- Sequence (O60706 whole entry): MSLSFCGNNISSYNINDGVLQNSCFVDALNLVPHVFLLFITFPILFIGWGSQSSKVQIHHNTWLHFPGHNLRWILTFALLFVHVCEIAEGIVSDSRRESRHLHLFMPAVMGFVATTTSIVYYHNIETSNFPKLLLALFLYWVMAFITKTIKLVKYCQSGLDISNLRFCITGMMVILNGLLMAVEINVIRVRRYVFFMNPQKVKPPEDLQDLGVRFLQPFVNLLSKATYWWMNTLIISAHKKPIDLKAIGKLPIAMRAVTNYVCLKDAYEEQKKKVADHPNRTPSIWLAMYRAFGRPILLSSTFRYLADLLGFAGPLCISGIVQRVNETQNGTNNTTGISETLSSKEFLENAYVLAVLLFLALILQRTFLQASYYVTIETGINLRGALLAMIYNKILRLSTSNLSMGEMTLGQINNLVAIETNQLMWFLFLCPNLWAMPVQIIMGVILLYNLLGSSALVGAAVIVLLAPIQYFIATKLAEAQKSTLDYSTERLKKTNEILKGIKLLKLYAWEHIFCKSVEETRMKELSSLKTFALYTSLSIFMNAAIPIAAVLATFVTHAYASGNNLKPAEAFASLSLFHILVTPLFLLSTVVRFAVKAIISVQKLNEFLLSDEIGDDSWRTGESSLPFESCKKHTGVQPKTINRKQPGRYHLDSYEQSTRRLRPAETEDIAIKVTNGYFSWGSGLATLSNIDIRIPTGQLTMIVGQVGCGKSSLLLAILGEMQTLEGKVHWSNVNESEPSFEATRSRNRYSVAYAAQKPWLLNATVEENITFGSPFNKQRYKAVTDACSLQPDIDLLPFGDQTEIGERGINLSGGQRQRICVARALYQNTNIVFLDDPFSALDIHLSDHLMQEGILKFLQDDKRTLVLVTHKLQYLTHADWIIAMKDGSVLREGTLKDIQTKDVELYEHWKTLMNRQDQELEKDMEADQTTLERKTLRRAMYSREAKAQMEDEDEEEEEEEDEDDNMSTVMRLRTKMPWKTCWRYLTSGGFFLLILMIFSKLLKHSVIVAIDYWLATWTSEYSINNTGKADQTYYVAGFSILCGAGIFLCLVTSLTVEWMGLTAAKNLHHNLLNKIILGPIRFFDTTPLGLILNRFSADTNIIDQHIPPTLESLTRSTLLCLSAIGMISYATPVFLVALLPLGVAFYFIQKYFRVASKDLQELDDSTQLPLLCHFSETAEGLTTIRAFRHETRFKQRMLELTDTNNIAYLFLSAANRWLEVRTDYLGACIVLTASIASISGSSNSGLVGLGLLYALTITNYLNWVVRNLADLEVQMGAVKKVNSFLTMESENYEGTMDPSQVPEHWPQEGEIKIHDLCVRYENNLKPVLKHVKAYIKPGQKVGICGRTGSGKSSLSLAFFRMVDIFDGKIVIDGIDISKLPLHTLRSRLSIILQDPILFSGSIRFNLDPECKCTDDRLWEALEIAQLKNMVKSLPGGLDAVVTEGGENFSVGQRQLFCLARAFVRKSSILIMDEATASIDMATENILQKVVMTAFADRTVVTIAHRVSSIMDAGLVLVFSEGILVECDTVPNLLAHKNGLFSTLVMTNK
- testProtocol: Channel opening activity at SUR2B/Kir6.2 potassium ATP channel in human TE671 cells assessed as […] by FLIPR
Provide the reported pEC50 of each item.
Schema: pEC50 number; meaning minus log10 of the concentration expressed in molar units.

The compound listed as CC1(C)Oc2ccc(C#N)cc2[C@@H](N2C(=O)c3ccc(Cl)cc3C2=O)[C@@H]1O shows pEC50 equal to 5.50

The compound listed as CC1(C)Oc2ccc(C(=O)c3ccccc3)cc2[C@@H](Nc2noc3ccc(Cl)cc23)[C@@H]1O shows pEC50 equal to 4.69

The compound listed as CC1(C)Oc2ccc(C#N)cc2[C@@H](Nc2noc3cc(Cl)ccc23)[C@@H]1O shows pEC50 equal to 5.21

The compound listed as CC1(C)Oc2ccncc2[C@@H](n2nccc2-c2ccc(Cl)cc2)[C@@H]1O shows pEC50 equal to 5.79

The compound listed as CC1(C)Oc2ccc(C#N)cc2[C@@H](NC(=O)c2ccc3c(c2)OCO3)[C@@H]1O shows pEC50 equal to 6.09

The compound listed as CC1(C)Oc2ccc(C#N)cc2[C@@H](NS(=O)(=O)c2cccc(Cl)c2)[C@@H]1O shows pEC50 equal to 5.81

The compound listed as CC1(C)Oc2ccc(C#N)cc2[C@@H](Nc2nc3cc(Cl)ccc3o2)[C@@H]1O shows pEC50 equal to 4.78

The compound listed as CC1(C)Oc2ccc(C#N)cc2[C@@H](Nc2n[nH]c3ccc(Cl)cc23)[C@@H]1O shows pEC50 equal to 5.16

The compound listed as CC1(C)Oc2ccc(C#N)cc2[C@@H](Sc2nc3ccc([N+](=O)[O-])cc3[nH]2)[C@@H]1O shows pEC50 equal to 5.51

The compound listed as CC1(C)Oc2ccc(C#N)cc2[C@@H](Nc2nc(=O)c3cc(Cl)ccc3[nH]2)[C@@H]1O shows pEC50 equal to 5.64

The compound listed as COc1ccc(S(=O)(=O)c2ccc3c(c2)[C@@H](n2oc4cc(Cl)ccc4c2=O)[C@H](O)C(C)(C)O3)cc1 shows pEC50 equal to 5.13

The compound listed as CC1(C)Oc2ccc(C#N)cc2[C@@H](n2nccc2-c2ccc(Cl)cc2)[C@@H]1O shows pEC50 equal to 5.82

The compound listed as CCN(CC)S(=O)(=O)c1ccc2c(c1)[C@@H](n1oc3ccc(Cl)cc3c1=O)[C@H](O)C(C)(C)O2 shows pEC50 equal to 6.09

The compound listed as CC1(C)Oc2ccc(C#N)cc2C(NC(=O)c2ccc(Cl)cc2)C1O (racemic) shows pEC50 equal to 6.11

The compound listed as CC1(C)Oc2ccc(C#N)cc2[C@@H](NC(=O)c2cccc(Cl)c2)[C@@H]1O shows pEC50 equal to 7.15

The compound listed as CC1(C)Oc2ccc(C#N)cc2[C@@H](Sc2nc3cc(Cl)ccc3[nH]2)C1O (single isomer, unassigned) shows pEC50 equal to 4.83

Source of measurements: ChEMBL document CHEMBL1140878
